Molecular target: GLUT9 (Homo sapiens, UniProt Q9NRM0, W336F)
Construct: full length human SLC2A9, N-terminal twin strep and FLAG tag
Sequence (Q9NRM0 1-540 W336F): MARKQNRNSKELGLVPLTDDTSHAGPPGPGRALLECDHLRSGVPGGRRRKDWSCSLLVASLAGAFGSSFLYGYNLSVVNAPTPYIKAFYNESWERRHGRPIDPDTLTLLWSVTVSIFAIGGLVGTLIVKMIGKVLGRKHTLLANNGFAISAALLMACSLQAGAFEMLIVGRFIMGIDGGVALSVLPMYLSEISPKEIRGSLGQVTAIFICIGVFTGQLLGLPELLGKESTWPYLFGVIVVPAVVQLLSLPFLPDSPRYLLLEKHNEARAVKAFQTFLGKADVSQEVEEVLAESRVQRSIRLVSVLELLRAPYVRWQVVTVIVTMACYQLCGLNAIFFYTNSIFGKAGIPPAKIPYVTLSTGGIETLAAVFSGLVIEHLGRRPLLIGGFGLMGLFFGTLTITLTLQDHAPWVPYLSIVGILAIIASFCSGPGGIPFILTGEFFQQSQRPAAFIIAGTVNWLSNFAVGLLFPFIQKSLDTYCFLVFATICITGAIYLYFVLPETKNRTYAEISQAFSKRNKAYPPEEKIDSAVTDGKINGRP
Assay: MST with purified protein
observed.property: Kd
# output: number + unit

What the record says about O=c1[nH]c(=O)c2[nH]c(=O)[nH]c2[nH]1 [UA, urate] : Kd is 361 µM

====

Target: GLUT9 (Homo sapiens)
Construct: gene SLC2A9; full length human SLC2A9, N-terminal twin strep and FLAG tag
Experiment: cryo-EM structure ([…] Å), MST Kd; patch clamp IC50 […]
Assay type: binding
observed.property: Kd

What the record says about "O=c1cc(-c2ccc(O)cc2)oc2cc(O)cc(O)c12" : Kd is 500 nM

====

Target: GLUT9 (Homo sapiens, UniProt Q9NRM0, Y327A)
Construct: full length human SLC2A9, N-terminal twin strep and FLAG tag
Sequence (Q9NRM0 1-540 Y327A): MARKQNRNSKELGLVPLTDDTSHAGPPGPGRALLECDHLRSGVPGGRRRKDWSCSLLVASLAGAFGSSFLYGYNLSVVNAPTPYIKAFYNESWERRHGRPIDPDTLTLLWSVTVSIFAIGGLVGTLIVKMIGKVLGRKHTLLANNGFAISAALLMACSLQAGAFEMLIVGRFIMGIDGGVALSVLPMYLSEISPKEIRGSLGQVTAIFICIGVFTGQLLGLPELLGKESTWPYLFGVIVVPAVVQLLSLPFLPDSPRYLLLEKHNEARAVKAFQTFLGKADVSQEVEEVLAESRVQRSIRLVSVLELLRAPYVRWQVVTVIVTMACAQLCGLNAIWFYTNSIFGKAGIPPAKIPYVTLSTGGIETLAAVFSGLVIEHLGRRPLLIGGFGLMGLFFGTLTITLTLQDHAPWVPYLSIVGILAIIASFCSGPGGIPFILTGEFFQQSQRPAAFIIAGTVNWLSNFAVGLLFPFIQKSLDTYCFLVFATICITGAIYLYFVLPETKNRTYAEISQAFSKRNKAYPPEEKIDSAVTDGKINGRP
Experiment: MST with purified protein
observed.property: Kd (nM)
Lab book: enter the figure in nM, no units written.

What the record says about O=c1cc(-c2ccc(O)cc2)oc2cc(O)cc(O)c12 [API, apigenin] : Kd is 2200
